test: NCI Yeast Anticancer Drug Screen. Data for the rad50 strain (AID 155);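 further: 0% = growth of vehicle-only cultures of the same strain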; details: S. cerevisiae rad50 strain growth inhibition; at 50.0 µM; stronger effect = higher value
About 79,000 compounds went through this panel and 15% of them were active in at least one assay; those are over-represented in the sample as a whole. Calls of active or inactive are those of the source. No stated cut-off is given here; in the data, active means growth inhibition above about 70%; inactive means the rest.
Each entry below carries its reported growth inhibition.
READOUT_KIND: growth inhibition

• CC(C)=CC1C(C(=O)OCCOc2ccccc2)C1(C)C (configuration not stated) = -0.75% (inactive)
• CCOP(=O)(OCC)C1CCC(=O)O1 (configuration not stated) = -14.2% (inactive)
• O=C(Cl)OCCOCCOC(=O)Cl = -4.35% (inactive)
• O=S(=O)(O)O/N=C(\Cc1ccccc1)SC1OC(CO)C(O)C(O)C1O (configuration not stated) = -2.45% (inactive)
• CC[C@H]1CN2CCc3c([nH]c4ccccc34)[C@@H]2C[C@@H]1/C(=C\OC)C(=O)OC = 8.45% (inactive)
• CS/C([S-])=N/N=C(C)C.CS/C([S-])=N/N=C(C)C.[Pt+2] = 9.1% (inactive)
• O=C(NCCc1ccc([N+](=O)[O-])cc1)c1ccc(S(=O)(=O)F)cc1 = 1.9% (inactive)
• NC(=O)Cc1nn[nH]n1 = -16.4% (inactive)
• O=C([CH-]C(=O)c1ccccc1)c1ccccc1.O=C([CH-]C(=O)c1ccccc1)c1ccccc1.O=C([CH-]C(=O)c1ccccc1)c1ccccc1.[OH3+].[Y+3] = 91.6% (active)
• C[C@]12Cc3cn4ncnc4nc3CC1CC[C@@H]1[C@@H]2CC[C@]2(C)C(O)CC[C@@H]12 (some centres not stated) = 97.5% (active)
• CCC(C)CC(C)N (configuration not stated) = 0.6% (inactive)
• CC(C)(OOC(C)(C)c1ccccc1)c1ccccc1 = -13.1% (inactive)

###

experiment: NCI Yeast Anticancer Drug Screen. Data for the bub3 strain (AID 167); details: S. cerevisiae bub3 mutant strain, at 50.0 µM, stronger effect = higher value
This is part of a sample that, as a whole, favours compounds with a hit. Of some 79,000 tested, about 15% had one in any assay.
Label scheme for growth inhibition: lower than 10% is NOT MET, 10% and above is MET.

* CCOC(=O)CC(=Nc1cc(C)on1)N(CC)CC | NOT MET
* COC(=O)C1=C(C(=O)OC)C2(OC(C)=O)c3ccccc3-c3ccccc3C12 (stereo not drawn) | MET
* CN1C(=O)N(C)P1(Cl)(Cl)Cl | NOT MET
* CC12CCC(O)CC1CCC1C2CCC2(C)C(c3ccc(=O)oc3)CC3OC312 (stereo not drawn) | MET
* CC(Cc1ccccc1)NC(=O)/C=C/C(=O)O (stereo not drawn) | MET
* N/N=C(\N)c1nn[nH]n1 | MET
* CCOP(=O)(OCC)C(F)(F)CC1CCCCC1 | MET
* CN1CCC(OC(=O)Oc2ccccc2)(c2ccccc2)CC1 | MET
* Cc1ccc2nc(NC(=O)C(=O)C3C(=O)NC(=S)NC3=O)sc2c1 | NOT MET
* OC(c1ccccc1)C1CCCCN1 (stereo not drawn) | MET
* O=C1CN2CCCCC2CN1 (stereo not drawn) | NOT MET
* O=C(CCl)OCc1ccccc1 | NOT MET
* c1ccc2c(c1)ccc1[s+]cccc12 | MET
